- target_or_test_system: T1, PUF4 RNA-binding domain (Saccharomyces cerevisiae, UniProt P25339 537-888)
- T1 sequence: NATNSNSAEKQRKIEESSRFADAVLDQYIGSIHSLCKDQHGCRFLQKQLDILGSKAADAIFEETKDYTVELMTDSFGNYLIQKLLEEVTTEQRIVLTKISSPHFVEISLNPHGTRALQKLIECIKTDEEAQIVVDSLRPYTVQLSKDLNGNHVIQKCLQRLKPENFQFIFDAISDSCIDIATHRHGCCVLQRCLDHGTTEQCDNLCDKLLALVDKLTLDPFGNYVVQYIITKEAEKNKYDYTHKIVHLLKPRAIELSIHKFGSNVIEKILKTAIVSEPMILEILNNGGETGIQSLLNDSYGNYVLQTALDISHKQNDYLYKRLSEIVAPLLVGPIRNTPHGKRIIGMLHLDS
- method_summary: Mg; RNA-MaP; 20 mM Na-HEPES pH 7.4, 30 mM KOAc, 0.75 mM MgCl2, 0.1% Tween-20, 5% glycerol, 0.1 mg/mL BSA, 2 mM DTT; 25 C; 0.0125-409.6 nM protein
- measurement_setup: tags: N-His6-TEV cleaved; C-SNAP kept, Cy3B-labelled; label: tethered on chip by stalled RNA polymerase
Would you kindly list Kd for each of these binders?
Give the value, in units of nM, as a plain number.

binder Id_ii_S4_P4E.4_K4.3_C4.2_[C-2G]_H4.3_A4.1_F4.1_T4.2_[G10T]_[T11A] (ssRNA) RNA: UUUGACAACUGAUCGUUCUUUCUGUACACUAUUAUAUUCUUUCUCGAUCAGUUGUCUUU , Kd observed: 0.647

Per the records, this binder ( Ic_S4_P3E.1_K3.1_C3.1_H3.1_A3.1_[T5G]_[A6T]_F3.1_[T7G]_[A8C]_T3.1 (ssRNA) RNA: UUUGACAACUGAUCGUUCUUUCUUGUAGUGCUUCUUUCUCGAUCAGUUGUCUUU ) has Kd equal to 506

Measured Kd of Ie_S2_P3E.2_K3.1_C3.2_H3.1_[+2CTCT]_A3.1_F3.1_T3.2 (ssRNA) RNA: UUUGAUUAAUAUGAUAUCGUUCUUUCUCUUGCUCUUAUAUAUAUUCUUUCUCGAUAUCAUAUUAAUCUUU : 62.1

Kd measured on Ic_S2_P4E.1_K4.1_C4.1_H4.1_A4.1_[A6G]_[T7C]_F4.1_[T8A]_[A9T]_T4.1 (ssRNA) RNA: UUUGAUUAAUAUGAUAUCGUUCUUUCUUGUAUGCAUUUCUUUCUCGAUAUCAUAUUAAUCUUU = 155

Query UCUCUUUGUACGUUGUCUCUU (ssRNA) [Ic_S1_P4E.1_K4.1_C4.1_H4.1_A4.1_[T5C]_[A6G]_F4.1_[A9G]_T4.1] yields Kd of 40.5

For reference, reported Kd for UCUCUUUGUACACAAUCUCUU (ssRNA) [Ic_S1_P4E.1_K4.1_C4.1_H4.1_A4.1_[T5C]_[T7C]_F4.1_[T8A]_T4.1] stands at 17.1

Input Ic_S2_P4E.1_K4.1_C4.1_H4.1_A4.1_[T5G]_[A6C]_F4.1_[T8G]_[A9G]_T4.1 (ssRNA) RNA: UUUGAUUAAUAUGAUAUCGUUCUUUCUUGUAGCUGGUUCUUUCUCGAUAUCAUAUUAAUCUUU . Output Kd: 709

Reported Kd ( Ic_S2_P4E.1_K4.1_C4.1_H4.1_A4.1_[T5A]_[A6C]_F4.1_[T8G]_[A9G]_T4.1 (ssRNA) RNA: UUUGAUUAAUAUGAUAUCGUUCUUUCUUGUAACUGGUUCUUUCUCGAUAUCAUAUUAAUCUUU ) = 701

The reported value for Ib_S4_P5E.1_K5.1_C5.1_H5.1_[T3C]_A5.1_[A7G]_F5.1_T5.1 (ssRNA) RNA: UUUGACAACUGAUCGUUCUUUCUUGCAUUGUUAUUCUUUCUCGAUCAGUUGUCUUU in terms of Kd is 1520

Kd measured on Ic_S2_P4E.1_K4.1_C4.1_H4.1_A4.1_[T5C]_[A6C]_[T7C]_F4.1_[T8C]_[A9T]_T4.1 (ssRNA) RNA: UUUGAUUAAUAUGAUAUCGUUCUUUCUUGUACCCCUUUCUUUCUCGAUAUCAUAUUAAUCUUU = 96.8

Kd in this record for UCUCUUUGUACCCGCUCUCUU (ssRNA) [Ic_S1_P4E.1_K4.1_C4.1_H4.1_A4.1_[T5C]_[A6C]_[T7C]_F4.1_[T8G]_[A9C]_T4.1] : 1420

Notebook: UCUCUUAUUAUAUAUUAUGUCUCUU (ssRNA) [Id_ii_S1_P4E.3_K4.2_C4.2_[C-2A]_H4.2_A4.1_F4.1_T4.2_[G10T]_[T11G]] , Kd read as 18.8

Data point: Ib_S2_P5E.1_K5.1_C5.1_H5.1_A5.1_[A7C]_F5.1_[A10C]_T5.1 (ssRNA) RNA: UUUGAUUAAUAUGAUAUCGUUCUUUCUUGUAUUCUUCUUCUUUCUCGAUAUCAUAUUAAUCUUU ; Kd = 14.5

Value of measured Kd for the entry UCUCUUUGUAAUAGCUCUCUU (ssRNA) [Ic_S1_P4E.1_K4.1_C4.1_H4.1_A4.1_[T5A]_[A6T]_[T7A]_F4.1_[T8G]_[A9C]_T4.1] : 941

What the record says about Id_ii_S4_P5E.2_K5.1_C5.2_[T-1G]_H5.1_A5.1_F5.1_T5.2_[T11G]_[A12C] (ssRNA) RNA: UUUGACAACUGAUCGUUCUUUCUCGUGUAUUAUUAGCUUCUUUCUCGAUCAGUUGUCUUU : Kd is 1.94

Input Ib_S4_P5E.1_K5.1_C5.1_H5.1_[A4G]_A5.1_F5.1_[T8C]_T5.1 (ssRNA) RNA: UUUGACAACUGAUCGUUCUUUCUUGUGUUACUAUUCUUUCUCGAUCAGUUGUCUUU . Output Kd: 28.4

Sample Ib_S2_P4E.1_K4.1_C4.1_H4.1_[T3C]_A4.1_[A6C]_F4.1_T4.1 (ssRNA) RNA: UUUGAUUAAUAUGAUAUCGUUCUUUCUUGCAUCUUAUUCUUUCUCGAUAUCAUAUUAAUCUUU ; Kd observed: 1010

Consider ACAAACUAUAUAUAUACAACAAAC (ssRNA) [Id_ii_S3_P3E.3_K3.2_C3.2_[C-2T]_[T-1A]_H3.2_A3.1_F3.1_T3.2_[T9C]] . Its measured Kd is 205

For UCUCUUUAUUGUAAAUAUAUCUCUU (ssRNA) [Id_iii_S1_P3E.8_K3.4_C3.3_[C-2A]_H3.1_A3.2_F3.1_T3.2] the binder record lists Kd as 18.2

Record Ic_S4_P5E.1_K5.1_C5.1_H5.1_A5.1_[T5G]_F5.1_[T8A]_[T9C]_[A10C]_T5.1 (ssRNA) RNA: UUUGACAACUGAUCGUUCUUUCUUGUAGUAACCUUCUUUCUCGAUCAGUUGUCUUU , field Kd: 1160
